# Species: Rattus norvegicus
# Test name: Open TG-GATES - Regimen: Single
# Type: toxicity, organism-based, Sprague-Dawley
# Design: regimen Single, gender Male, age 6 weeks
# Measurement setup: in vivo, po, 0 mg/kg, 24 h, tissue Plasma, route gavage, dose level Control
Quick list: LDH per entry.
Your answer is read as IU/L, so omit the unit and give the number.

>  <Molecule>
Cc1cccc(Nc2ccccc2C(=O)O)c1C

>  <Readout unit>
IU/L

>  <LDH>
223.6

$$$$
>  <Molecule>
C#C[C@]1(O)CC[C@H]2[C@@H]3CCC4=Cc5oncc5C[C@]4(C)[C@H]3CC[C@@]21C

>  <Readout unit>
IU/L

>  <LDH>
173.8

$$$$

Please find the next molecule below.
Can you share its LDH? I mean this molecule: C1CCC(C(CC2CCCCN2)C2CCCCC2)CC1 (stereo not drawn) 177.6
